The values you see were collected from patent US4731109A.

# key: entry, value: selectivity factor (GR15/GR85)
Tested on: Texas panicum
Experiment: Greenhouse pre-emergence GR15/GR85 selectivity test
Format: in vivo
Conditions: in lima beans, Table XVI
quantity_name: selectivity factor (GR15/GR85)

INSERT INTO measurements (structure_smiles, bound_operator, value_measured) VALUES
  ('Cc1cccc(C(F)(F)F)c1N(COC(C)C)C(=O)CCl', '>', 2),
  ('CCOCN(C(=O)CCl)c1c(CC)cccc1C(F)(F)F', '=', 1.3),
  ('CCCOCN(C(=O)CCl)c1c(CC)cccc1C(F)(F)F', '>', 1),
  ('CCCOCN(C(=O)CCl)c1c(C)cccc1C(F)(F)F', '=', 1.1),
  ('Cc1cccc(C(F)(F)F)c1N(COCC(C)C)C(=O)CCl', '>', 2.1);
